Here, each record is paired with measured growth data.
test system: SF-268 CNS; assay: NCI-60 one-dose screen, 48 h (100 = growth as untreated, 0 = no growth, -100 = all killed); conditions: 10 µM unless noted
Compounds without any hit were thinned out: in the full panel of roughly 83,000, 20% have a hit.
Give the value in % but do not write % after it.

INSERT INTO measurements (compound, quantitativeresult) VALUES
  ('CCOC(=O)c1ccc(NC(=S)NC(=O)c2cccc(NC(=O)c3ccc(C)cc3)c2)cc1', 102),
  ('O=C1CC(c2ccc(I)cc2)OC2C=Cc3ccccc3C12 (stereo unspecified)', 114),
  ('COc1cccc2nc(Nc3cccc(NC(=O)c4ccc(CN5CCN(C)CC5)c(C(F)(F)F)c4)c3)ccc12', -54.4),
  ('COc1cc(CNC(=O)[C@]23CCC(C)(C)CC2C2=CCC4[C@@]5(C)CCC(OC(C)=O)C(C)(C)C5CC[C@@]4(C)[C@]2(C)CC3)ccc1OCc1cn(-c2ccc(Cl)cc2Cl)nn1 (stereo partly specified)', 110),
  ('O=C1/C(=C/c2cnc(-c3ccccc3)s2)SC(=S)N1Cc1ccc2c(c1)OCO2', 44.6),
  ('CCCCCCCCc1ccc(C(=O)Nc2ccc(C)cc2C(=O)O)cc1', 96),
  ('COc1ccc(N=Nc2c(N)nn3c(-c4ccc(F)cc4)ccnc23)cc1', 83.5),
  ('Cn1cc(-c2cc3nc(-c4cn(C)c5ncc(Br)cc45)cc(N)n3n2)c2cc(F)ccc21', 57.6),
  ('CCOc1ccccc1[C@H]1C(C(=O)c2ccc(Cl)cc2)C2(N[C@@H]1c1ccccc1)C(=O)Nc1ccc(Br)cc12 (stereo partly specified)', 14.2),
  ('CCOc1ccc(-c2cc(-c3cc(C(C)C)c(O)cc3C)nn2-c2ccc(S(N)(=O)=O)cc2)cc1', 44.1);

Then there is this compound:
Entry under test: `NC(=O)c1ccc(-c2ccc3ncnc(N4CCc5cc(F)c(Cl)cc54)c3c2)cn1` . Its growth was 95.6

Origin of the recorded values: PubChem BioAssay (NCI)
